target: T1, recombinant human PD-1 Fc chimera (human, UniProt Q15116 25-167); test: SPR (Biacore T200), PD-1-huFc amine-coupled to CM5, single cycle kinetics, 1:1 fit
T1 construct: Bought (R&D 1086-PD); Labelled with europium cryptate in the PD-L2 HTRF assay; also called human PD-1 (R&D Systems cat no. 1086-PD); human PD-1-huFc; not shown: human Fc of the bought chimera
T1 sequence (Q15116 25-167, change not shown): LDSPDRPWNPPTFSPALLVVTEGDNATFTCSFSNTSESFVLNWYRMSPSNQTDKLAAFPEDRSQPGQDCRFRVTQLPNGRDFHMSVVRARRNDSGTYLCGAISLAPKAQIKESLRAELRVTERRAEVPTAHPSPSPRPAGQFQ
pKd: −log10 of the molar value.
outcome.measure: pKd

P: Humabody VH 1.48 (VHH, human VH single domain antibody) VHH: EVQLVESGGGLVQPGRSLRLSCAASGFTFDDYALHWVRQAPGKDLEWVSGISWNSGSQGYADSVKGRFTISRDNAKNSLYLQMNSLRAEDTALYYCVREKGPGLTGSTADYYGLDAWGQGTMVTVSS
Q: Humabody VH 1.47 (VHH, human VH single domain antibody) VHH: EVQLVESGGGLVQPGRSLRLSCAASGFTFDDYAFHWVRQAPGKDLEWVSGISWNSGSYGYADSVKGRFTISRDNAKNSLYLQMNSLRAEDTALYYCVREKGPGLTGSTADYYGLDAWGQGTMVTVSS
Input: Hi, I'm comparing two records. Which one has the lower pKd, P or Q ? Lab log: write the label of the selected item as the result.
Output: P
(P: 7.79, Q: 7.99)

A: Humabody VH 1.40 (VHH, human VH single domain antibody) VHH: EVQLVESGGGLVQPGRSLRLSCAASGFTFDDYALHWVRQAPGKDLEWVSGISWNGGSQGYADSVKGRFTISRDNAKNSLYLQMNSLRAEDTALYYCVREKGPGLTGSTADYYGLDAWGQGTMVTVSS
B: Humabody VH 1.50 (VHH, human VH single domain antibody) VHH: EVQLVESGGGLVQPGRSLRLSCAASGFTFDDYAFHWVRQAPGKDLEWVSGISWNAGSQGYADSVKGRFTISRDNAKNSLYLQMNSLRAEDTALYYCVREKGPGLTGSTADYYGLDAWGQGTMVTVSS
Input: Param pair: A , B . Output: the one whose pKd is numerically greater. Lab log: write the label of the selected item as the result.
Output: A
